System: Enterococcus spp.
ASSAY_NOTES: minimum inhibitory concentration (MIC)
EXPERIMENTAL_PARAMETERS: isolate (source animal id): 169
# minimum inhibitory concentration listing for each entry below

[
  {
    "COMPOUND": "CC[C@H]1OC(=O)C[C@@H](O)[C@H](C)[C@@H](O[C@@H]2O[C@H](C)[C@@H](O)[C@H](N(C)C)[C@H]2O)[C@@H](CCN2C[C@H](C)C[C@H](C)C2)C[C@@H](C)C(=O)/C=C/C(C)=C/[C@@H]1CO[C@@H]1O[C@H](C)[C@@H](O)[C@@H](OC)[C@H]1OC",
    "TARGET_OR_TEST_SYSTEM": "Enterococcus spp.",
    "REPORTED_RELATION": "=",
    "minimum inhibitory concentration, µg/mL": 16
  },
  {
    "COMPOUND": "COc1cc(NS(=O)(=O)c2ccc(N)cc2)nc(OC)n1",
    "TARGET_OR_TEST_SYSTEM": "Enterococcus spp.",
    "REPORTED_RELATION": ">",
    "minimum inhibitory concentration, µg/mL": 256
  },
  {
    "COMPOUND": "C=C[C@]1(C)C[C@@H](OC(=O)CSCCN(CC)CC)[C@]2(C)[C@H](C)CC[C@]3(CCC(=O)[C@H]32)[C@@H](C)[C@@H]1O",
    "TARGET_OR_TEST_SYSTEM": "Enterococcus spp.",
    "REPORTED_RELATION": "=",
    "minimum inhibitory concentration, µg/mL": 1
  },
  {
    "COMPOUND": "CNC(C)C1CCC(N)C(OC2C(N)CC(N)C(OC3OCC(C)(O)C(NC)C3O)C2O)O1 (stereo unspecified)",
    "TARGET_OR_TEST_SYSTEM": "Enterococcus spp.",
    "REPORTED_RELATION": "=",
    "minimum inhibitory concentration, µg/mL": 8
  },
  {
    "COMPOUND": "CCC[C@@H]1C[C@@H](C(=O)N[C@@H]([C@H]2O[C@H](SC)[C@H](O)[C@@H](O)[C@H]2O)[C@H](C)Cl)N(C)C1",
    "TARGET_OR_TEST_SYSTEM": "Enterococcus spp.",
    "REPORTED_RELATION": "≤",
    "minimum inhibitory concentration, µg/mL": 0.25
  },
  {
    "COMPOUND": "CN[C@@H]1[C@H](O)[C@H](NC)[C@H]2O[C@@]3(O)C(=O)C[C@@H](C)O[C@H]3O[C@@H]2[C@H]1O",
    "TARGET_OR_TEST_SYSTEM": "Enterococcus spp.",
    "REPORTED_RELATION": "=",
    "minimum inhibitory concentration, µg/mL": 64
  }
]

====

Tested on: Escherichia coli
ASSAY_NOTES: minimum inhibitory concentration (MIC)
EXPERIMENTAL_PARAMETERS: isolate (source animal id): 109
# minimum inhibitory concentration listing for each entry below
TEST_READOUT: minimum inhibitory concentration

[
  {
    "COMPOUND": "CS(=O)(=O)c1ccc([C@@H](O)[C@@H](CF)NC(=O)C(Cl)Cl)cc1 [Florfenicol]",
    "ASSAY_RESULT": "> 8 µg/mL"
  },
  {
    "COMPOUND": "CC[C@H]1OC(=O)C[C@@H](O)[C@H](C)[C@@H](O[C@@H]2O[C@H](C)[C@@H](O[C@H]3C[C@@](C)(O)[C@@H](O)[C@H](C)O3)[C@H](N(C)C)[C@H]2O)[C@@H](CC=O)C[C@@H](C)C(=O)/C=C/C(C)=C/[C@@H]1CO[C@@H]1O[C@H](C)[C@@H](O)[C@@H](OC)[C@H]1OC [Tylosin]",
    "ASSAY_RESULT": "> 32 µg/mL"
  },
  {
    "COMPOUND": "CC[C@H]1OC(=O)C[C@@H](O)[C@H](C)[C@@H](O[C@@H]2O[C@H](C)[C@@H](O)[C@H](N(C)C)[C@H]2O)[C@@H](CCN2CCCCC2)C[C@@H](C)C(=O)/C=C/C(C)=C/[C@@H]1CN1CCCCC1 [Tildipirosin]",
    "ASSAY_RESULT": "4 µg/mL"
  },
  {
    "COMPOUND": "CC[C@H]1OC(=O)C[C@@H](O)[C@H](C)[C@@H](O[C@@H]2O[C@H](C)[C@@H](O)[C@H](N(C)C)[C@H]2O)[C@@H](CCN2C[C@H](C)C[C@H](C)C2)C[C@@H](C)C(=O)/C=C/C(C)=C/[C@@H]1CO[C@@H]1O[C@H](C)[C@@H](O)[C@@H](OC)[C@H]1OC [Tilmicosin]",
    "ASSAY_RESULT": "> 16 µg/mL"
  }
]

// provenance: the supplement of paper PMC8612539
